melting point values, listed per item

A selection of reference data follows.
In [3]: df
Out[3]:
                                   compound  measurement_kind         result
0     c1cnc2[nH]c(-c3ccc(C4OCCCO4)cc3)cc2n1     melting point  288 to 289 °C
1       N#CCCn1c(C(=O)OCc2ccccc2)cc2ccccc21     melting point   98 to 100 °C
2                       CCCCc1nnc2ccccc2c1O     melting point         180 °C
3  COCc1c(C(=O)OC(C)C)ncc2[nH]c3cccc(-c4cccs4)c3c12     melting point  160 to 162 °C
4  CC(CCO)c1ccc(-c2ccccc2)c(F)c1 (stereo unspecified)     melting point          72 °C
5  COc1cc2c(Nc3ccc(C)c(OC(C)=O)c3)ncnc2cc1OCc1ccncc1     melting point  201 to 202 °C
6  CCOc1cc(Cc2cnc(N)nc2N)cc2c1OC(C)(C)C=C2CC(C)C     melting point         188 °C
7  COC(=O)Nc1nc(-c2ccccc2)c(-c2nc3ccccc3c(=O)n2-c2ccc(C)cc2)s1     melting point       > 275 °C
8           Oc1ccc(-c2cc3ccccc3[nH]2)c(O)c1     melting point         188 °C
9  O=C(OCCc1c(-c2ccccc2)n2nnnc2n2ncnc12)C12CC3CC(CC(C3)C1)C2     melting point  129 to 130 °C

For the compound "CS(=O)(=O)c1ccc(-c2cccn2-c2ccc(F)cc2)cc1" , give its reported melting point. 145 to 147 °C

Write down melting point measured for item Cc1ccc(C2Sc3ccccc3NC(=O)C2CO)cc1 (stereo unspecified) 229 °C

----------
The entries below come with measured melting point values attached.

In [3]: df
Out[3]:
                                   compound         result
0  CCOCCOc1c(C2CCN(CCCCNC(=O)c3ccc(-c4ccc(C(F)(F)F)cc4)cc3)CC2)ccc2c1CCCC2         190 °C
1            [N-]=[N+]=C1C(=O)Nc2ccc(F)cc21  209 to 210 °C
2  Cn1cc(C(=O)NCc2ccc(Cl)cc2)c(=O)c2sc(C=O)c(COCC[Si](C)(C)C)c21  174 to 176 °C

Read the entry O=C1C(CCO)Oc2ccc(C(F)(F)F)cc2N1Cc1cccc(Cl)c1 (stereo not drawn) and write its reported melting point. 92 to 94 °C

Complete the entry with melting point for "O=C(O)c1cc(S(=O)(=O)N2CC=CCC2)ccc1Cl" 180 to 182 °C

Report melting point for "CC(C)(Cl)C(=O)c1ccc(C(=O)c2ccc(C(=O)C(C)(C)Cl)cc2)cc1" 82 to 83 °C

Give the measured melting point for COCC1CN(c2ccc3cc(OCCC#N)ccc3c2)C(=O)O1 (stereo not drawn) 110 to 112 °C

Read the entry "Cc1ccc(-c2c(CNC(=O)OC(C)(C)C)[nH]c(=O)c3ccc(C#N)cc23)cc1" and write its reported melting point. 156 to 157 °C

Please look at this compound and report its melting point: "N#Cc1cn(-c2cccnc2)nc1-c1ccc([N+](=O)[O-])o1" 206 to 207 °C

Recall and state the measured melting point for "O=S1(=O)c2ccccc2-c2ccccc2N1CCCN1CCN(c2ccc(F)cc2)CC1" . 163 °C

Return the recorded melting point value; entry: "CN1C(=O)C(=O)c2cc([N+](=O)[O-])cc(C(F)(F)F)c21" 168 to 169 °C

Give the reported value of melting point for this record: "CCOC(=O)C=Cc1cccc(N)c1" 84 to 85 °C

Tell me melting point reported for "CC(C)(C)NC(=O)[C@@H]1C[C@@H]2CCCC[C@@H]2CN1C[C@@H](O)[C@@H](N)Cc1ccccc1" 175 to 176 °C

Provide melting point value for the following compound: "Cc1ccc(Cc2cnc(NCCCNc3ccc(Cl)cn3)[nH]c2=O)cn1" 173 to 175 °C

Given "Oc1ccc(-c2nn(C3CCCCC3)c3c(Cl)cccc23)cc1" , respond with its melting point. 176 to 177 °C

State, in one line, measured melting point of "CNc1nc(=O)n(CCCN2CCN(C(c3ccccc3)c3ccccc3)CC2)c2ccccc12" 238 to 240 °C

For the compound "c1ccc2c(c1)CCn1ccnc1C2=C1CCNCC1" , give its reported melting point. 287 to 289 °C

Tell me measured melting point for CCCCCCCCCCCC(=O)c1ccc(-c2ccc(OCC(C)OC(=O)CCCCCC)c(Cl)c2)cc1 (stereo not drawn) please. 43.2 to 43.4 °C
